Provide the reported Ki of each item.
# TARGET SYSTEM: serotonin reuptake receptors (5HT) / Serotonin uptake sites (transporters) (Rattus norvegicus, UniProt P31652)
# Sequence (P31652 whole entry): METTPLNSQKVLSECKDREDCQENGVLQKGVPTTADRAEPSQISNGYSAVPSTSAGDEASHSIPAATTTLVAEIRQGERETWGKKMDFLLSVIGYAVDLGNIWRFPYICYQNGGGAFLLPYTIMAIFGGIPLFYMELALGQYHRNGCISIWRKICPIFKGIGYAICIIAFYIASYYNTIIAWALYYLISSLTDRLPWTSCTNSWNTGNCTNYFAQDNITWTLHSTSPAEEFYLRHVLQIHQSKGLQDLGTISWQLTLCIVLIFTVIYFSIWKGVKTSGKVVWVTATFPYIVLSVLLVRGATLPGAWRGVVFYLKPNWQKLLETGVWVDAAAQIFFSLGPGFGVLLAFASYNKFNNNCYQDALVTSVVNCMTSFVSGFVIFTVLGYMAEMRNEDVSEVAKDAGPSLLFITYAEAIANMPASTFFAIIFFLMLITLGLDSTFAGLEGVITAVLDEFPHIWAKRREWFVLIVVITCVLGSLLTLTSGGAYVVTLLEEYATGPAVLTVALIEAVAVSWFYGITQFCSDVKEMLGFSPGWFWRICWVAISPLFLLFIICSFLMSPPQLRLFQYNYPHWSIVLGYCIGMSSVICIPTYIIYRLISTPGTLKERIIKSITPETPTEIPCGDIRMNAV
# TEST METHOD NOTES: Affinity for serotonin reuptake sites, [3H]-paroxetine radioligand, rat cerebral cortex
# RECORDED CONDITIONS: Rat brain; read-out: K1 values, Serotonin uptake sites (transporters)
Give a bare numeral; the unit nM is implied.

Form field: reported Ki of "N#Cc1cccc(O[C@H](c2ccccc2)C2CCNCC2)c1"
1.68

Form field: reported Ki of "Fc1ccccc1O[C@@H](c1ccccc1)C1CCNCC1"
28.5

Form field: reported Ki of "FC(F)(F)c1ccc(O[C@H](c2ccccc2)C2CCNCC2)cc1"
34.8

Form field: reported Ki of "Fc1cccc([C@@H](Oc2ccccc2F)C2CCNCC2)c1"
27.6

Form field: reported Ki of "Fc1ccc(O[C@H](c2ccccc2)C2CCNCC2)cc1"
45.9

Form field: reported Ki of "Fc1cccc([C@H](Oc2ccccc2F)C2CCNCC2)c1"
4.3

Form field: reported Ki of "Fc1cccc(O[C@H](c2cccc(F)c2)C2CCNCC2)c1"
9.99
